Tested on: Tetrahymena pyriformis
protocolDescription: 48 h IGC50 (-log10 mol/L); higher = more toxic
Rule: 48 h IGC50 (-log10 mol/L) of 4 or more gives true; anything lower gives false.

Look over these answered cases.
O=C(CBr)c1cccs1 | true
C#CC(C)O (stereo not given) | false
CCc1cccs1 | false
CCC#CCC(C)O (stereo not given) | false
CCOC(=O)C[C@H](O)CC#N | false

Consider the record given below.
Check the entry CC(=O)C(C)Cl (stereo not given) : does 48 h IGC50 (-log10 mol/L) equal or exceed 4? false

----------
System: Tetrahymena pyriformis
protocolDescription: 48 h IGC50 (-log10 mol/L); higher = more toxic
measuredMetric: 48 h IGC50 (-log10 mol/L)
Numbers only.

For each entry beneath this line, provide reported 48 h IGC50 (-log10 mol/L).
1. CCCCOC(=O)CCC
2. Cc1ccc(O)c([N+](=O)[O-])n1
3. COC(C)=O
4. CC(C)=O
5. COC(N)=O
6. C=COC(=O)CCCCCCC
7. C=CC(=O)OCC
8. CCOC(=O)c1ccc(C#N)cc1

[3.52, 3.39, 1.41, 0.796, 1.02, 2.7, 3.52, 3.37]

For reference, reported 48 h IGC50 (-log10 mol/L) for Fc1cc(F)c(F)nc1F stands at 2.39

----------
System: Daphnia magna
protocolDescription: 48 h LC50 (-log10 mol/L); higher = more toxic
measuredMetric: 48 h LC50 (-log10 mol/L)
Answers are plain numbers.

CN(C)c1nc(=O)n(C2CCCCC2)c(=O)n1C | 3.22

Please look at the items below and tell me 48 h LC50 (-log10 mol/L) for each one, in order.
1. CCCCCCCCn1sccc1=O
2. CN(C)C(=S)SSC(=S)N(C)C
3. COc1ccccc1OCCNCC(O)COc1cccc2[nH]c3ccccc3c12 (centres undefined)
4. CC(Cc1ccc(C(C)(C)C)cc1)CN1C[C@@H](C)O[C@@H](C)C1 (some centres undefined)
5. Cc1ccc(Cl)cc1Cl
6. CC(=O)OCC(CCn1cnc2cnc(N)nc21)COC(C)=O

1. 6.07
2. 6.06
3. 5.13
4. 5.1
5. 5.42
6. 2.59

I would be grateful if you could provide 48 h LC50 (-log10 mol/L) for each of the following entries.
1. Oc1ccc2ccccc2c1
2. CCCCC(CC)COC(=O)CCCCC(=O)OCC(CC)CCCC (centres undefined)
3. Cc1ccc2ccccc2c1

4.61
5.75
4.98

Below are some compounds; for each one, tell me its 48 h LC50 (-log10 mol/L).
1. CN1C(=O)CN=C(c2ccccc2)c2cc(Cl)ccc21
2. O=C1CNC(=S)N1

1. 4.82
2. 3.77

Lab note: each compound below needs its 48 h LC50 (-log10 mol/L) filled in.
1. Clc1ccc(-c2ccc(Cl)cc2Cl)cc1
2. c1ccsc1

1. 6.21
2. 2.42

----------
System: Pimephales promelas
protocolDescription: 96 h LC50 (-log10 mol/L); higher = more toxic
Classification field: enter yes (1) for 96 h LC50 (-log10 mol/L) values not below 4, no (0) for values below it.

CCOC(=O)c1ccc(N)cc1 | no (0)

Record NCCCN1CCN(CCCN)CC1 ; criterion: 96 h LC50 (-log10 mol/L) no lower than 4. Met? no (0)

Has CC(C)Nc1nc(Cl)nc(NC2CC2)n1 a recorded 96 h LC50 (-log10 mol/L) greater than or equal to 4? yes (1)

Check the entry OCCOCCO : does 96 h LC50 (-log10 mol/L) equal or exceed 4? no (0)

Check if 96 h LC50 (-log10 mol/L) >= 4 (inclusive). Item: C=CC(=O)OCC yes (1)

# bool: 96 h LC50 (-log10 mol/L) of CCCCC(CC)COC(=O)c1ccccc1C(=O)OCC(CC)CCCC (stereo not given) >= 4 no (0)

For this molecule, is measured 96 h LC50 (-log10 mol/L) 4 or higher? CCNCc1ccccc1 no (0)

Quick check: does c1ccc2cnncc2c1 have 96 h LC50 (-log10 mol/L) greater than or equal to 4? no (0)

----------
System: Pimephales promelas
protocolDescription: 96 h LC50 (-log10 mol/L); higher = more toxic
Exercise: for every item that follows, state its recorded 96 h LC50 (-log10 mol/L).

Below: 10 molecules and their reported 96 h LC50 (-log10 mol/L).
C=CC(=O)OCC(C)O (configuration not stated) | 4.59
COC(=O)c1ccc(O)cc1O | 3.6
CC(C)(C)SC(C)(C)C | 3.7
CC(C)(C)CN | 2.26
C1OCOCO1 | 1.18
Clc1nc(Cl)c(Cl)c(Cl)c1Cl | 5.73
CC(C)CC=O | 4.42
CCCCCCCCN | 4.4
CCN1C(=O)CC(=O)N(CC)C1=S | 1.65
CCCCOC(=O)/C=C/C(=O)OCCCC | 5.52

Take each entry in turn and give its 96 h LC50 (-log10 mol/L).
1. Cc1ccc(N)c([N+](=O)[O-])c1
2. Cc1cc(Cl)nc(N)n1
3. C/C=C/C=O
4. O=Cc1c(F)cccc1Cl
5. CC(=O)c1ccc(Cl)c([N+](=O)[O-])c1
6. CCNS(=O)(=O)C(F)(F)C(F)(F)C(F)(F)C(F)(F)C(F)(F)C(F)(F)C(F)(F)C(F)(F)F
7. C1CN2CCN1CC2

[3.79, 3.01, 4.92, 4.23, 4.56, 6.45, 1.81]

----------
System: Daphnia magna
protocolDescription: 48 h LC50 (-log10 mol/L); higher = more toxic
measuredMetric: 48 h LC50 (-log10 mol/L)
Numbers only.

For orientation, consider the following solved cases.
Cc1ccc2sccc2c1 | 4.03
C1CCCC1 | 3.81
CN1CCCC1=O | 4.91
Clc1ccc(C(c2ccc(Cl)cc2)C(Cl)(Cl)Cl)cc1 | 8.27

Would you be so kind as to report 48 h LC50 (-log10 mol/L) for each listed record?
1. CCS
2. N/C(=N\N=C\c1ccc(Cl)cc1)N/N=C/c1ccc(Cl)cc1
3. O=S(=O)(c1ccc(Cl)cc1)c1cc(Cl)c(Cl)cc1Cl

[5.56, 6.65, 4.71]

Could I get 48 h LC50 (-log10 mol/L) for every one of these entries?
1. Oc1ccccc1
2. CCc1ccccc1N
3. CCOP(=S)(OCC)SCSCC
4. O=C1C2(Cl)C3(Cl)C4(Cl)C(Cl)(Cl)C5(Cl)C3(Cl)C1(Cl)C5(Cl)C24Cl (centres undefined)
5. Cc1c(Cl)cccc1[N+](=O)[O-]
6. COP(=S)(OC)Oc1ccc([N+](=O)[O-])c(C)c1

1: 3.85; 2: 4.18; 3: 7.13; 4: 6.39; 5: 4.61; 6: 7.67

Per the records, this molecule ( Oc1cc(Cl)ccc1Oc1ccc(Cl)cc1Cl ) has 48 h LC50 (-log10 mol/L) equal to 6.11

----------
System: Daphnia magna
protocolDescription: 48 h LC50 (-log10 mol/L); higher = more toxic
// not satisfied strictly below 4 in 48 h LC50 (-log10 mol/L); satisfied otherwise

Would you please look over these solved cases?
CC1(C)[C@H](C(=O)O[C@H](C#N)c2cccc(Oc3ccccc3)c2)[C@@H]1C(Br)C(Br)(Br)Br (some centres not stated) | satisfied
CN(C)C(=N)N=C(N)N | not satisfied
S=c1[nH]c2ccccc2s1 | satisfied
Cc1ccc(C(C)C)cc1 | satisfied
O=S1(=O)c2ccccc2-c2ccccc21 | satisfied
O=C(O)c1ccccc1O | not satisfied
O=[N+]([O-])c1ccc(Oc2c(Cl)cc(Cl)cc2Cl)cc1 | satisfied
CC(C)(C)NC(=O)[C@H]1CC[C@H]2[C@@H]3CC[C@H]4NC(=O)C=C[C@]4(C)[C@H]3CC[C@]12C | satisfied
CNC(=S)NC | not satisfied
CCCCC(CC)C(=O)O (configuration not stated) | not satisfied

Say whether CCCCNC(N)=S shows 48 h LC50 (-log10 mol/L) of 4 or more. not satisfied

Assess whether reported 48 h LC50 (-log10 mol/L) for CCCCCCCO sits at 4 or higher. not satisfied

Form field: 48 h LC50 (-log10 mol/L) at least 4? Entry: CCCN(CCC)C(=O)SCC satisfied

Does COC(=O)c1ccccc1C(=O)OC have a reported 48 h LC50 (-log10 mol/L) of at least 4? not satisfied

----------
System: Pimephales promelas
protocolDescription: 96 h LC50 (-log10 mol/L); higher = more toxic
For each record, write down the corresponding 96 h LC50 (-log10 mol/L).
One number for each entry.

Record excerpt, results attached:
CCCN(CCC)c1c([N+](=O)[O-])cc(C(C)C)cc1[N+](=O)[O-] | 5.85
CCOC(CN(C)CC(OCC)OCC)OCC | 2.62

Below is a list of compounds. For each, state its recorded 96 h LC50 (-log10 mol/L).
1. N#Cc1ccccc1C(F)(F)F
2. CCCCOC(=O)c1ccc(C(=O)OCCCC)cc1
3. CCNc1nc(NC(C)(C)C)nc(OC)n1
4. CC(O)CCl (configuration not stated)
5. COc1ccccc1C(N)=O
6. C#CC(C)(C)O
7. NC(=O)c1ccc(Cl)cc1Cl

[3.61, 5.67, 3.66, 2.59, 3.1, 1.41, 3.3]

Below is a list of compounds. For each, state its recorded 96 h LC50 (-log10 mol/L).
1. CC1=CCC(=C(C)C)CC1
2. OCC(F)(F)F
3. CCOC(=O)CC(SP(=S)(OC)OC)C(=O)OCC (configuration not stated)
4. Nc1ccc([N+](=O)[O-])cc1Cl

[5.05, 2.92, 4.42, 3.93]

From: EPA's aquatic toxicity sets
